Give pEC50 for every item shown.
Target: human CB2 receptors (Homo sapiens (Human))
Experiment: cAMP assay, CHO cells expressing human CB2 receptors
Assay type: cell-based
Conditions: CHO cells expressing human CB2, cAMP; read-out: human CB2 EC50
One number for each entry, as −log10 of the molar value.

Compound | pEC50
CCC(CC)(NC(=O)c1ccc(C2CC2)c(OCC2CC2)n1)C(=O)NCC1CC1 | 7.57

# batch size: 8; output pEC50 per entry
1. Cc1nc(C(NC(=O)c2ccc(N3CCC34COC4)c(OCC3CC3)n2)C2CC2)no1 (stereo not shown)
2. CCC(CC)(NC(=O)c1cccc(-c2ccc(Cl)cc2)n1)C(=O)NC
3. Cc1ccc(C(=O)NN2CCCCC2)nc1OCC1CC1
4. NC(=O)[C@H](CC1CC1)NC(=O)c1ccc(N(CC(F)(F)F)CC(F)(F)F)c(OCC2CC2)n1
5. Cc1nc([C@H](CC(C)C)NC(=O)c2cccc(S(=O)(=O)CC(C)C)n2)no1
6. CC(C)CC(NC(=O)c1ccc(N2CC(F)(F)C2)c(OCC2CC2)n1)c1ncccn1 (stereo not shown)
7. CC(C)(NC(=O)c1cccc(-c2cccc(Cl)c2)n1)c1ncco1
8. Cc1nc([C@H](CC2CC2)NC(=O)c2ccc(N3CC(F)(F)C3)c(OCC3CC3)n2)no1

1: 7.44; 2: 6.73; 3: 6.86; 4: 7.26; 5: 6.02; 6: 7.19; 7: 7.00; 8: 7.57

###

Biological target: human CB2 receptors (Homo sapiens (Human))
Assay: cAMP assay, CHO cells expressing human CB2 receptors
Type: cell-based
Conditions: CHO cells expressing human CB2, cAMP; read-out: human CB2 EC50
Observed Property: log10 of EC50 (log10 of the value in nM)
On a log10 scale: recorded EC50, unit nM.

Compound | Tgt | Recorded Result
CNC(=O)[C@H](CC(C)(C)C)NC(=O)c1ccc(C2CC2)c(S(=O)(=O)CC(C)C)n1 [Example 361] | human CB2 receptors (Homo sapiens (Human)) | 1.63
CC(C)[C@@](C)(CO)NC(=O)c1ccc(C2CC2)c(OCC2CC2)n1 [Example 279] | human CB2 receptors (Homo sapiens (Human)) | 1.36
CC(C)C[C@H](CO)NC(=O)c1ccc(C2CC2)c(OCC2CC2)n1 [Example 174] | human CB2 receptors (Homo sapiens (Human)) | 1.51

# batch size: 2; output log10 of EC50 per entry
1. O=C(NC1CCCCC1O)c1cccc(C2CCCCC2)n1 (centres unmarked) [Example 84]
2. CNC(=O)[C@H](CC(C)(C)C)NC(=O)c1cccc(-c2cccc(Cl)c2)n1 [Example 193]

2.47
2.00

###

Molecular target: human CB2 receptors (Homo sapiens (Human), UniProt P34972)
Sequence (P34972 whole entry): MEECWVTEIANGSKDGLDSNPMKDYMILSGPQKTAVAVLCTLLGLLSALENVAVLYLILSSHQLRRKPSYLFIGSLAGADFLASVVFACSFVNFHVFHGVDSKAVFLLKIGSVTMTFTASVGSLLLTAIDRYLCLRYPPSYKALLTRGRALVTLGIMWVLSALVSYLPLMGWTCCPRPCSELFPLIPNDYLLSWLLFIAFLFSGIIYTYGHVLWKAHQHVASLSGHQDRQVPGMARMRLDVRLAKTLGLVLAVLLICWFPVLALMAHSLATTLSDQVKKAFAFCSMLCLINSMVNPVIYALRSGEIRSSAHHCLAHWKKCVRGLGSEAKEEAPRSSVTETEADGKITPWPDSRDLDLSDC
Assay: cAMP assay, CHO cells expressing human CB2 receptors
Format: cell-based
Conditions: CHO cells expressing human CB2, cAMP; read-out: human CB2 EC50
pEC50: −log10 of the molar value.
Group membership follows pEC50 per the scheme low (below 7), intermediate (7 to below 8), high (8 or more)

Example results:
Compound | Tgt | Assigned Class
COC(=O)[C@H](CC(C)C)NC(=O)c1ccc(C2CC2)c(OCC2CC2)n1 [Example 270] | human CB2 receptors (Homo sapiens (Human), UniProt P34972) | high
NC(=O)[C@@H](NC(=O)c1ccc(C2CC2)c(OCC2CC2)n1)C1CC1 [Example 374] | human CB2 receptors (Homo sapiens (Human), UniProt P34972) | intermediate
CN(C)C(=O)[C@H](NC(=O)c1ccc(C2CC2)c(OCC2CC2)n1)c1ccccc1 [Example 227] | human CB2 receptors (Homo sapiens (Human), UniProt P34972) | intermediate
CC(C)(NC(=O)c1ccc(C2CC2)c(OCC2CC2)n1)c1ccccn1 [Example 285] | human CB2 receptors (Homo sapiens (Human), UniProt P34972) | intermediate
CNC(=O)[C@H](CC(C)(C)C)NC(=O)c1ccc(C2CC2)c(OCC(F)(F)C(F)(F)F)n1 [Example 299] | human CB2 receptors (Homo sapiens (Human), UniProt P34972) | intermediate

Kindly state the category for this compound: CCC(CC)(NC(=O)c1ccc(C2CC2)c(OCC2CCCO2)n1)C(=O)OC (centres unmarked) [Example 233]
high

Kindly state the category for this compound: Cc1nc([C@](C)(CC2CC2)NC(=O)c2ccc(C3CC3)c(OCC3CC3)n2)no1 [Example 357]
high

Kindly state the category for this compound: Cc1nc([C@@H](C)NC(=O)c2ccc(C3CC3)c(OCC3CC3)n2)no1 [Example 241]
intermediate

Kindly state the category for this compound: CC(C)(NC(=O)c1ccc(C2CCCO2)c(-c2cccc(Cl)c2)n1)c1nccs1 (centres unmarked) [Example 127]
low

Kindly state the category for this compound: NC(=O)[C@H](CC1CC1)NC(=O)c1ccc(C2CC2)c(-c2cccc(Cl)c2)n1 [Example 97]
low
